Tested on: SW-620 colon
Assay: NCI tumour cell line growth inhibition, 48 h
ATTRIBUTE_MEASURED: TGI

# MOLECULE, ATTRIBUTE_MEASURED, RESULT
data = [
    ("CCN(CC)c1ccc(/C=N/NC(=O)c2ccc(S(C)(=O)=O)cc2)c(O)c1", "TGI", "> 100 µM"),
    ("COc1cc2c(/C=C3\\C(=O)N(C)c4ccc(O)cc43)c[nH]c2cc1C", "TGI", "34 µM"),
    ("Cn1cc(C2=C(Oc3ccccc3)C(=O)NC2=O)c2ccccc21", "TGI", "> 25 µM"),
    ("COc1ccccc1-c1cc(=O)c2c(C)ccnc2[nH]1", "TGI", "40.7 µM"),
    ("CCOC(=O)Nc1cc(NC(/C=N/NC(C)=O)C(=O)OCC)c(OC)cc1NC(C)=O (configuration not stated)", "TGI", "> 100 µM"),
    ("O=C1Nc2ccccc2C12CCCC2", "TGI", "> 100 µM"),
    ("CC1CC(NN)=Nc2ccccc2N1 (configuration not stated)", "TGI", "> 100 µM"),
    ("CS(=O)(=O)CCN(CC#N)Cc1ccc(-c2ccc3ncnc(Nc4ccc(OCc5cccc(F)c5)c(Cl)c4)c3c2)o1", "TGI", "> 25 µM"),
    ("COC1=CC(=O)[C@]2(C)[C@H](C1=O)C(C)[C@H]2c1ccc(OC)cc1 (some centres not stated)", "TGI", "> 100 µM"),
    ("CC(C)(C)c1ccc(S(=O)(=O)N2C(c3cccc(C4CC[C@@H](C(=O)O)N4S(=O)(=O)c4ccc(C(C)(C)C)cc4)c3)CC[C@H]2C(=O)O)cc1 (some centres not stated)", "TGI", "> 100 µM"),
    ("Nc1ccc(Cc2ccc(N=Cc3ccc(OCc4cccc(COc5ccc(C=Nc6ccc(Cc7ccc(N)cc7)cc6)cc5)n4)cc3)cc2)cc1", "TGI", "> 100 µM"),
    ("COC(=O)/C(=N/NC(N)=O)C(C(=O)C(=O)Nc1ccc(C)cc1)c1nc2ccc(C(=O)c3ccccc3)cc2[nH]c1=O (configuration not stated)", "TGI", "> 100 µM"),
    ("O=C1C=C(c2[nH]c3ccccc3c2C2=CC(=O)c3ccccc3C2=O)C(=O)c2ccccc21", "TGI", "> 100 µM"),
    ("COC12OCCN(CCO)C1=CC(=O)C1(C)N=NC(C)C12 (configuration not stated)", "TGI", "> 100 µM"),
    ("CC(C)(C)OC(=O)N1CC(O)O[C@H](c2ccccc2)[C@@H]1c1ccccc1 (some centres not stated)", "TGI", "32.8 µM"),
    ("O=S(=O)(O)c1cc(N=Nc2cccc3ccccc23)c(O)c2ncccc12", "TGI", "> 100 µM"),
    ("O=C1NC(=NCc2ccccc2Br)S/C1=C\\c1ccc2ncccc2c1", "TGI", "> 25 µM"),
    ("CC(=O)N1C(Nc2ccccc2)CCN1c1ccccc1 (configuration not stated)", "TGI", "> 10 µM"),
    ("COc1ccc(-c2nc(N)n(C)c2SSc2c(-c3ccc(OC)cc3)nc(N)n2C)cc1", "TGI", "5.09 µM"),
    ("CC(=O)OCc1cnc2c3c(nc4ccccc4c13)C(=O)c1cccnc1-2", "TGI", "0.5 µM"),
    ("CC(NC(=O)OC(C)(C)C)C(=O)NC(Cc1ccccc1)C(=O)NCC(=O)ON=C1CCCC1 (configuration not stated)", "TGI", "> 100 µM"),
    ("O=[N+]([O-])c1ccccc1N=Nc1c(O)[nH]c2ccc(S(=O)(=O)O)cc12", "TGI", "> 100 µM"),
    ("O=C(OCc1nc2nc(Cl)nc(N3CCOCC3)c2[nH]1)n1ccnc1", "TGI", "3.32 µM"),
    ("N#CSCc1nc2ccc(Cl)cc2c(-c2ccccc2)[n+]1[O-]", "TGI", "30.2 µM"),
    ("CN1CCN(CC(=O)N2CCCn3c2nc2ccccc2c3=O)CC1", "TGI", "> 100 µM"),
    ("O=C(Cc1nc(-c2ccccc2)cc(=O)n1-c1ccccc1Cl)c1ccncc1", "TGI", "> 100 µM"),
    ("NCCNS(=O)(=O)c1ccc(N)cc1", "TGI", "> 100 µM"),
    ("Cn1ccnc1Sc1ccc(/C=N\\NC(=O)c2cccc(F)c2)cc1[N+](=O)[O-]", "TGI", "> 100 µM"),
    ("C1OC1C1CO1 (configuration not stated)", "TGI", "> 100 µM"),
    ("CC(C)(Oc1ccc(Cl)cc1)C(=O)N(C(=O)N1CCN(c2ccccc2)CC1)c1ccccc1", "TGI", "> 100 µM"),
    ("CCN(CC)CCOCCn1c2c(c3ccccc31)CCCC2", "TGI", "36.8 µM"),
    ("COc1cccc(/C(COc2ccc3c(c2)oc(=O)c2ccccc23)=N\\O)c1", "TGI", "> 100 µM"),
    ("COc1cccc2c(=O)c3c(n(C)c12)OC(C(C)C)C3 (configuration not stated)", "TGI", "> 100 µM"),
    ("c1ccc(Cc2cc(-c3ccccc3)n[nH]2)cc1", "TGI", "28.7 µM"),
    ("CN(C)c1nc(N)nc(CCl)n1", "TGI", "87.7 µM"),
    ("Cn1cc(-c2nonc2-c2cn(C)c3ccc(F)cc23)c2ccccc21", "TGI", "> 100 µM"),
    ("COC(=O)c1cc(C)n(CN(Cn2nc(C(=O)OC)cc2C)c2ccccc2)n1", "TGI", "> 100 µM"),
    ("COC(=O)c1cc2/c(=N/O)c3ccccc3sc2o1", "TGI", "> 100 µM"),
    ("O=[N+]([O-])c1ccc(OCc2nnc(CCCCCCCCc3nnc(COc4ccc([N+](=O)[O-])cc4)o3)o2)cc1", "TGI", "> 100 µM"),
    ("C=C1c2nc3ccccc3n2C=C(c2ccc(OC)cc2)N1c1ccccc1", "TGI", "> 65.4 µM"),
    ("C=CCNCCN1C(=O)c2ccc3c4c(ccc(c24)C1=O)C(=O)N(CCNCC=C)C3=O", "TGI", "1.63 µM"),
    ("Cc1c2c(nn1-c1ccc(S/N=C3\\SCC(=O)CN3Cc3ccccc3)cc1)-c1ccccc1CC2", "TGI", "> 100 µM"),
]
